These molecules were tested on (+)-MK801 binding site of the ionotropic NMDA receptor; pKi is the recorded read-out.
pKi: −log10 of the molar value. Counter-ions that a name gives are not always drawn.
Measure: pKi

- Molecule: "Cc1ccccc1C1=CCN(C2(c3ccccc3)CCCCC2)CC1 [Example 7, hydrochloride]"
  Result number: 5.28
- Molecule: "Clc1ccccc1C1=CCN(C2(c3ccccc3)CCCCC2)CC1 [Example 11, hydrochloride]"
  Result number: 5.55
